ASSAYED_TARGET: human 11β-HSD1 (Homo sapiens, UniProt P28845)
Sequence (P28845 whole entry): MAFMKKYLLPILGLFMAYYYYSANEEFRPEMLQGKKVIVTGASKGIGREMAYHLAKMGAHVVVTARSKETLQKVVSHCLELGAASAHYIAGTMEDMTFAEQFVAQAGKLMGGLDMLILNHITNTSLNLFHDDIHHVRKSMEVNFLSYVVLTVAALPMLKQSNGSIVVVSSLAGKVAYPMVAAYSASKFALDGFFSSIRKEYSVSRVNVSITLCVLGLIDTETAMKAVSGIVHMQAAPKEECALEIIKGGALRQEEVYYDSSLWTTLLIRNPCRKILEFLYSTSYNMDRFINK
pIC50: −log10 of the molar value.
// pIC50 lookup, one value per entry

CCOC(=O)CC1CC2(CCN(C(=O)N(C)Cc3ccccc3F)CC2)c2c(Br)cccc21 (centres unmarked); > 7.00
O=C(O)CC1CC2(CCN(C(=O)/C=C/c3ccc(F)cc3C(F)(F)F)CC2)c2c(Cl)cccc21 (racemic); > 7.00
Cc1ccc2c(c1)C1(CCN(C(=O)/C=C/c3ccccc3C(F)(F)F)CC1)CC2CC(=O)O (racemic); > 7.00

Memo: O=C1NC2(CCN(C(=O)CCc3ccccc3C(F)(F)F)CC2)c2c(Cl)cc(Cl)cc21 , reported pIC50: > 7.00

Memo: CN1C(=O)c2cccc(Cl)c2C12CCN(C(=O)/C=C/c1c(Cl)cccc1Cl)CC2 , reported pIC50: > 7.00

Memo: NC(=O)CC1CC2(CCN(C(=O)/C=C/c3ccccc3C(F)(F)F)CC2)c2c(Br)cccc21 (racemic) , reported pIC50: > 7.00

Memo: O=C1CC2(CCN(C(=O)CNc3ccccc3C(F)(F)F)CC2)c2c(Br)cccc21 , reported pIC50: 6.00 to 7.00

Memo: Cc1ccccc1CNC(=O)N1CCC2(CC1)CC(CC(=O)N1CCNCC1)c1cccc(Br)c12 (centres unmarked) , reported pIC50: 6.00 to 7.00

====

ASSAYED_TARGET: human 11β-HSD1 (Homo sapiens)
Construct: expressed in transfected cells; host or cells: CHO cells (microsomes)
ASSAY_COMMENT: Inhibition of microsomal preparation of 11β-HSD1 (SPA, Biological Test Example 1)
Type: biochemical
CONDITION_DETAILS: 111 nM
MEASURED_PARAMETER: inhibition at 0.111 µM (%)

NC(=O)CC1CC2(CCN(C(=O)/C=C/c3ccccc3C(F)(F)F)CC2)c2c(Cl)cccc21 (racemic); 97.4
O=C(O)CC1CC2(CCN(C(=O)CCc3ccccc3C(F)(F)F)CC2)c2c(Br)cccc21 (single isomer, unassigned) [EXAMPLE 70.1]; 97.6
O=C1CC2(CCN(C(=O)OCc3ccccc3C(F)(F)F)CC2)c2c(Br)cccc21; 82.3
O=C(O)CC1CC2(CCN(C(=O)/C=C/c3cc(F)ccc3C(F)(F)F)CC2)c2c(Cl)cccc21 (racemic); 83.3
O=C(O)CC1CC2(CCN(C(=O)CCc3ccccc3C(F)(F)F)CC2)c2c(Br)cccc21 (centres unmarked) [EXAMPLE 58]; 87.4

====

ASSAYED_TARGET: human 11β-HSD1 (Homo sapiens)
Construct: expressed in transfected cells; host or cells: CHO cells (microsomes)
ASSAY_COMMENT: Inhibition of microsomal preparation of 11β-HSD1 (SPA, Biological Test Example 1)
Format: biochemical
CONDITION_DETAILS: 111 nM
MEASURED_PARAMETER: inhibition at 0.111 µM (%)

Worked examples follow.
CCOC(=O)CC1CC2(CCN(C(=O)N(CC)Cc3c(F)cccc3Cl)CC2)c2c(Br)cccc21 (stereo not drawn) [EXAMPLE 81]; 59.2
O=C(NCc1ccccc1-c1ccccc1)N1CCC2(CC1)OCc1ccccc12 [EXAMPLE 85]; 19.4
CCOC(=O)CC1CC2(CCN(C(=O)NCc3ccccc3OC(C)C)CC2)c2c(Br)cccc21 (stereo not drawn) [EXAMPLE 95]; 19.9

a: NC1CC2(CCN(C(=O)/C=C/c3ccccc3C(F)(F)F)CC2)c2c(Br)cccc21 (racemic) [EXAMPLE 18]
b: CCOC(=O)CC1CC2(CCN(C(=O)NCc3ccccc3C)CC2)c2c(Br)cccc21 (stereo not drawn) [EXAMPLE 86]
c: CN1CCN(C(=O)c2ccc3c(c2)C2(CCN(C(=O)/C=C/c4ccccc4C(F)(F)F)CC2)C(=O)N3C)CC1 [EXAMPLE 37]
-- ask Arrange items by their inhibition at 0.111 µM values in increasing order. A ranking is expressed here by listing the labels in the requested order.
-- reply c, b, a

A: CS(=O)(=O)N1Cc2ccccc2C2(CCN(C(=O)/C=C/c3ccccc3C(F)(F)F)CC2)C1 [EXAMPLE 22]
B: CC(C)(C)OC(=O)N1Cc2ccccc2C2(CCN(C(=O)/C=C/c3ccccc3C(F)(F)F)CC2)C1 [EXAMPLE 20]
C: O=C1NC2(CCN(C(=O)Cc3ccccc3C(F)(F)F)CC2)c2c(Cl)cccc21 [EXAMPLE 45]
-- ask Arrange items by their inhibition at 0.111 µM values in increasing order. A ranking is expressed here by listing the labels in the requested order.
-- reply B, C, A
(B: 29%, C: 43.2%, A: 95.3%)

I: O=C(O)CC1CC2(CCN(C(=O)/C=C/c3ccc(F)cc3C(F)(F)F)CC2)c2c(Cl)cccc21 (racemic) [EXAMPLE 4]
II: O=C(O)CC1CC2(CCN(C(=O)CCc3ccc(Cl)cc3Cl)CC2)c2c(Cl)cccc21 (stereo not drawn) [EXAMPLE 75]
-- ask Which of these two has the smaller recorded inhibition at 0.111 µM: I or II ? Returns: label corresponding to the selected item.
-- reply II
